test system: KM12 colon; experiment: NCI-60 one-dose screen, 48 h; conditions: 10 µM unless noted
This is part of a sample that, as a whole, favours compounds with a hit. Of some 83,000 tested, about 20% had one in any assay. Calls of active or inactive are those of the source. The calls were made as follows: active = growth percent below 10; inactive = the rest.
Mark one answer only. Choices: active, inactive

compound=C/C(=N/O)c1ccc(NC(=O)Cn2nc(-c3ccc(Cl)cc3)nc2N)cc1 assay_system="KM12 colon" label_value=inactive

Tell me the assay call for COc1ccc2c(c1)OC(N)=C(C#N)C2c1ccc(F)c(F)c1 (centres undefined) please. inactive

Returns: the outcome recorded for "Cc1nssc1=S" in this assay. inactive

Assay result, entry "CC1(C)N=C(N)N=C(N)N1c1cccc(CCCCc2ccccc2)c1" — outcome? active

Given "COc1ccc(/C(=C/c2cc(OC)c(OC)c(OC)c2)[N+](=O)[O-])cc1" , state the outcome it received in this test. inactive

Assay outcome for "CC(C)(C)OC(=O)N1CC(Cn2cc(C(F)(F)F)c3c(Cl)ncnc32)C1" : what was it? active

// return assay outcome for "COc1ccc(C(=O)NC(=O)Nc2ccc3c(c2)NC(=O)/C3=C\c2[nH]c(C)c(C(=O)O)c2C)cc1" inactive

Give the logged outcome of this assay for the following compound: "C=C1C(=O)O[C@H]2[C@H]1CC/C(COC(=O)n1ccnc1C)=C\CC[C@@]1(C)O[C@@H]21" inactive

Call for entry "COC(=O)c1ccc2c(c1)Oc1ccc(Cl)cc1-c1cc(C)nn1-2" : inactive

In this assay, the call recorded for "CCN(CC)CCC(C(=O)O)(c1ccccc1)c1ccccc1" was what? inactive

Which outcome was assigned to "COc1cc(C(=O)NNC(=O)c2ccccc2O)cc(OC)c1OC" in this test? inactive

// return assay outcome for "NS(=O)(=O)c1ccc(Nc2nc(O)c(/C=C3\C=Nc4ccccc43)s2)cc1" inactive

For "COc1ccc(/C(Cl)=N/N=C(\Cl)c2cc(OC)c(OC)c(OC)c2)cc1OC(C)=O" , what call appears in the results of this test? inactive

What outcome does the record of this test show for "CC(=O)N[C@@H](CNC(=O)c1cc(NC(=O)c2cc(NC(=O)c3cc(NC(=O)c4nccn4C)cn3C)cn2C)cn1C)CC(=O)Nc1cn(C)c(C(=O)Nc2cc(C(=O)Nc3cc(C(=O)Nc4cc(C(=O)NCCCN(C)CCCNC(=O)c5cccc(C(=O)O)c5)n(C)c4)n(C)c3)n(C)c2)n1" ? inactive

---

test system: A498 renal; assay: NCI-60 one-dose screen, 48 h (100 = growth as untreated, 0 = no growth, -100 = all killed); conditions: 10 µM unless noted
About 83,000 compounds went through this panel and 20% of them were active in at least one assay; those are over-represented in the sample as a whole.
Endpoint Name: growth (%)
The reply should be a number in %, with the unit left off.

Please review the following examples before continuing.
compound=CN1CCN(Cn2nc(-c3cc(F)c(Cl)cc3Cl)n(/N=C/c3ccc(N(C)C)cc3)c2=S)CC1 endpoint_name=growth quantitative_readout=78.8
compound=Nc1nccc2c1ccn2-c1cccc(NC(=O)c2ccc(N3CCOCC3)c(C(F)(F)F)c2)c1 endpoint_name=growth quantitative_readout=-12.9
compound=O=C(Cn1c2ccccc2c2ccncc21)N/N=C\c1ccc2ccccc2c1 endpoint_name=growth quantitative_readout=85.1
compound="Cc1cn([C@]2(CF)O[C@H](CO)C2C)c(=O)[nH]c1=O (some centres undefined)" endpoint_name=growth quantitative_readout=115
compound=COC(=O)c1ccc2c(c1)Oc1ccc(Cl)cc1-c1cc(C)nn1-2 endpoint_name=growth quantitative_readout=62.7

Below: the item to evaluate.
Quote growth reported for "CCc1cccc(C)c1NC(=O)c1sc2nc3c(cc2c1N)CCCCC3" please. 8.2

---

Test system: UO-31 renal
Experiment: NCI-60 one-dose screen, 48 h
Conditions: 10 µM unless noted
Method: Growth inhibition of the UO-31 human tumor cell line is measured as a screen for anti-cancer activity. Cells are grown in 96 well plates and exposed to the test compound for 48 hours. Compounds are tested at a single concentration, which is 10^-5 M for most compounds. The reported endpoint is percent growth (GI% or GIPRCNT), where numbers from 0 - 100% represent growth inhibition, and numbers from -100% - 0 represent cell death. For example, a value of 40 represents 60% growth inhibition. […]
Compounds without any hit were thinned out: in the full panel of roughly 83,000, 20% have a hit. The source made the active and inactive calls. How the source made its calls: active means growth percent below 10; inactive means the rest.
Response enum: 1 (yes) for active, 0 (no) for inactive

# example entries with known answers
molecule="COC1OCC(OS(=O)(=O)c2ccc(C)cc2)C(OC(=O)c2ccccc2)C1OC(=O)c1ccccc1 (centres undefined)" label_value="0 (no)"
molecule=O=C(COc1ccc(Cl)cc1)N1CCN(Cc2ccc3c(c2)OCO3)CC1 label_value="0 (no)"
molecule=Clc1ccc2c(NCCNc3nc(Cl)nc4ccccc34)ccnc2c1 label_value="1 (yes)"
molecule="O=C1OC(N(Cc2ccc(Cl)cc2)c2ccccc2)c2ccccc21 (centres undefined)" label_value="0 (no)"
molecule=C/C(=N/O)c1ccc(NC(=O)Cn2nc(-c3ccc(Cl)cc3)nc2N)cc1 label_value="0 (no)"

Each molecule tested received a call. Report the one for "Cc1cn(-c2nc3c(c(NCc4ccccc4)n2)COCC3)c2cccc(C(N)=O)c12" . 0 (no)

What outcome does the record of this test show for "O=C(Nc1ccc(-n2cc(-c3ccncc3)c(-c3ccc(O)c(Cl)c3)n2)cc1)c1ccc(Cl)c(C(F)(F)F)c1" ? 0 (no)

Test call for this molecule, please: "COc1cc(-c2nc(N)n(CC(=O)Nc3ccc(/C(C)=N\O)cc3)n2)cc(OC)c1OC" 0 (no)

What did this assay record as the result for "Nc1ncc(-c2ccc3ncnc(Nc4cncc(Cl)c4)c3c2)cn1" ? 0 (no)

Short answer needed: outcome of this test for "COc1ccc2c(c1)/C(=C/c1c(-c3cc(OC)c(OC)c(OC)c3Br)nc3sccn13)C(=O)N2" ? 0 (no)

Give the logged outcome of this assay for the following molecule: Nc1ncnc2c1ncn2C1OC(COC(c2ccccc2)(c2ccccc2)c2ccccc2)C(O)C1O (centres undefined) 0 (no)

Please state the recorded outcome for this molecule: "C#C[C@@]1(O)[C@@H](CO)O[C@@H](n2cc(Br)c3c(Cl)ccnc32)[C@@H]1O" 0 (no)

Look up the recorded call for "C=C1C(=O)O[C@H]2[C@H]1CC/C(COC(=O)c1ccc3ccccc3c1)=C\CC[C@@]1(C)O[C@@H]21" in this test. 1 (yes)

How did this test come out for CC12CCC3C(CCC4CC(O)CCC43C)C1C/C(=C/O)C(=O)O2 (centres undefined) ? 0 (no)

---

tested on: OVCAR-8 ovarian; assay: NCI-60 one-dose screen, 48 h (100 = growth as untreated, 0 = no growth, -100 = all killed); conditions: 10 µM unless noted
About 83,000 compounds went through this panel and 20% of them were active in at least one assay; those are over-represented in the sample as a whole.
Listing of recorded growth by entry.
Note: unit % is implicit; provide only the numeric part.

compound="CC12CCC3C(CCC4CC(O)CCC43C)C1C/C(=C/O)C(=O)O2 (stereo unspecified)" endpoint_name=growth unit_symbol=% quantitative_readout=104
compound=O=c1c(-c2ccc3c(c2)OCO3)coc2c(CO)c(O)ccc12 endpoint_name=growth unit_symbol=% quantitative_readout=24.3
compound="CC(Cl)(CCl)CS(=O)(=O)c1ccc(Cl)cc1 (stereo unspecified)" endpoint_name=growth unit_symbol=% quantitative_readout=97.4
compound=C[C@]12CC[C@@H]3c4ccc(O)c(N)c4CC[C@H]3[C@@H]1CC[C@@H]2O endpoint_name=growth unit_symbol=% quantitative_readout=104
compound="CC1CCc2cc(F)cc3c(=O)c(C(=O)O)cn1c23 (stereo unspecified)" endpoint_name=growth unit_symbol=% quantitative_readout=97.5

Shifting focus to the compound that follows.
Name the recorded growth of the item "O=S(=O)(CCN1CCOCC1)Nc1cc(-c2ccc3ncnc(Nc4ccc(F)c(Cl)c4)c3c2)cnc1Cl" in your answer. 16.1

---

test system: OVCAR-8 ovarian; assay: NCI-60 one-dose screen, 48 h; details: 10 µM unless noted
About 83,000 compounds went through this panel and 20% of them were active in at least one assay; those are over-represented in the sample as a whole. The source made the active and inactive calls. Rule for the calls: active = growth percent below 10; inactive = the rest.
Valid outcomes are listed here; reply with one: active, inactive

Use these answered entries as a reference point.
compound=COc1cc2c(cc1OC)-c1c(oc3c4c(ccc3c1=O)OC(C)(C)C=C4)CO2 label_value=inactive
compound="COc1cc(NC(C)CCCN2C(=O)c3ccccc3C2=O)c2nc(C)ccc2c1OC (stereo unspecified)" label_value=inactive
compound=CN1CCN(C(=O)/C=C/c2ccc([N+](=O)[O-])o2)CC1 label_value=inactive
compound=CC(C)(C)OC(=O)N1CC(Cn2cc(C(F)(F)F)c3c(Cl)ncnc32)C1 label_value=active
compound=O=C(Nc1ccc(-n2ccc3c(NC(=O)c4ccccc4)nccc32)cc1)Nc1cccc(C(F)(F)F)c1 label_value=inactive
compound=COc1ccc(/C(=C/c2cc(OC)c(OC)c(OC)c2)[N+](=O)[O-])cc1 label_value=inactive
compound=CC(=O)Cc1cccnc1 label_value=inactive
compound=C=C1C(=O)O[C@H]2[C@H]1CC/C(C(=O)Nc1ccc(OC)c(C(N)=O)c1O)=C\CC[C@@]1(C)O[C@@H]21 label_value=inactive

What call does the record list for "Clc1ccc(CN2COc3c(ccc4cccnc34)C2)cc1Cl" ? active

Assay outcome for COC1OCC(OS(=O)(=O)c2ccc(C)cc2)C(OC(=O)c2ccccc2)C1OC(=O)c1ccccc1 (stereo unspecified) : what was it? inactive

Which outcome was entered for the compound "O=C(O)c1ccc(-c2nn(-c3ccc(C(=O)O)cc3)cc2/C=N/Nc2c(F)c(F)cc(F)c2F)cc1" in this test? inactive

What call does the record list for "Cn1c(I)c(C#C[Si](C)(C)C)c(=O)[nH]c1=O" ? active

What outcome does the record of this test show for "COc1cc(NC(=O)C#Cc2ccccc2)c(OC)cc1Cl" ? inactive

GET /call?item= "COc1cc(C(=O)NNC(=O)c2ccccc2C(=O)O)cc(OC)c1OC" returns the recorded outcome of this test. inactive

Test call for this compound, please: "O=C1C(SCCO)=C(SCCO)C(=O)N1c1ccc(-c2ccccc2)cc1" active

Would you mind telling me which call this test gave "O=C(Nc1ccc(-n2ccc3c(NC(=O)c4ccccc4)nccc32)cc1)c1cccc(C(F)(F)F)c1" ? inactive
